Let's look at some variants and their measured abundance fitness.
B1: E3 ubiquitin-protein ligase Midline-1, residues 172 to 214; numbered along this chain, O15344 (parent)
chain: GLMCLEHEDEKVNMYCVTDDQLICALCKLVGRHRDHQVAALSE

# Variants of: B1
# method.notes: abundance fitness (aPCA) (normalised: wild type 0, dead -1); higher = more abundant; growth selection in yeast, the domain comes from the species named
# condition.label: Homo sapiens

The following variants have reported results that may help.
seq_string="GLMCLEHEDEKVNMYCVTDDQLICALCKLPGRHRDHQVAALSE [V30P]" readout="abundance fitness" value_reported=0.022
seq_string="GLMCLEHIDEKVNMYCVTDDQLICALCKLVGRHRDHQVAALSE [E8I]" readout="abundance fitness" value_reported=-0.139
seq_string="GLMCLEHEMEKVNMYCVTDDQLICALCKLVGRHRDHQVAALSE [D9M]" readout="abundance fitness" value_reported=0.246
seq_string="GLMCLEHEDEKVNMYYVTDDQLICALCKLVGRHRDHQVAALSE [C16Y]" readout="abundance fitness" value_reported=-0.624
seq_string="GLMCLEHECEKVNMYCVTDDQLICALCKLVGRHRDHQVAALSE [D9C]" readout="abundance fitness" value_reported=0.13

abundance fitness in this record for GLMCLEHEDEMVNMYCVTDDQLICALCKLVGRHRDHQVAALSE [K11M] : 0.096

Lab note: measured abundance fitness of GLMCLEHEDEKVNMYCVTDDQLICALCKLVGRHRDHQVAALIE [S42I] was -0.446

The recorded abundance fitness for GLMCLEHEDEKVNMYCVTDDQLICALCKLRGRHRDHQVAALSE [V30R] is -0.055

In plain terms, GLMCLEHEDEKVNGYCVTDDQLICALCKLVGRHRDHQVAALSE [M14G] has a documented abundance fitness of 0.059

Per the records, this variant ( GLMCLEHEDEKVNMYCVTDDQLICALCKLVGRHRDHQVAALME [S42M] ) has abundance fitness equal to -0.262

Data point: GLMCLEHEDEKVNMYCVTDDQLICALCKLVGRKRDHQVAALSE [H33K] ; abundance fitness = -0.423

Form field abundance fitness, entry GLMCLEHEDEKVNNYCVTDDQLICALCKLVGRHRDHQVAALSE [M14N] : -0.028

# variant GLMCLEHEDEKVNRYCVTDDQLICALCKLVGRHRDHQVAALSE [M14R] ; its abundance fitness = 0.033

Input GLMCLEHEDEKVNMYCVTDDQLICALCKLVGRHRDHQVAQLSE [A40Q] . Output abundance fitness: 0.082

Reported abundance fitness of GLMCLEHEDEKVNMSCVTDDQLICALCKLVGRHRDHQVAALSE [Y15S] : -0.023

Per the records, this variant ( GLMCLEHEDEKVNMYCVTDDQLICALCKLVGRHRTHQVAALSE [D35T] ) has abundance fitness equal to -0.042

Please fill in: abundance fitness reported for GLMCLEHEQEKVNMYCVTDDQLICALCKLVGRHRDHQVAALSE [D9Q] = 0.116

// abundance fitness value for GLMCLEHEDEKRNMYCVTDDQLICALCKLVGRHRDHQVAALSE [V12R] : 0.024

The variant identified as GLMCLEHEDEKVNMYCVTDDQLICALCKLVGRHRDHQVAALCE [S42C] registered its abundance fitness at 0.012

The variant identified as GIMCLEHEDEKVNMYCVTDDQLICALCKLVGRHRDHQVAALSE [L2I] registered its abundance fitness at 0.257
